Measured pIC50, listed per entry.
- target-or-test-system: human BACE-1 (Homo sapiens, UniProt P56817)
- Sequence (P56817 46-501): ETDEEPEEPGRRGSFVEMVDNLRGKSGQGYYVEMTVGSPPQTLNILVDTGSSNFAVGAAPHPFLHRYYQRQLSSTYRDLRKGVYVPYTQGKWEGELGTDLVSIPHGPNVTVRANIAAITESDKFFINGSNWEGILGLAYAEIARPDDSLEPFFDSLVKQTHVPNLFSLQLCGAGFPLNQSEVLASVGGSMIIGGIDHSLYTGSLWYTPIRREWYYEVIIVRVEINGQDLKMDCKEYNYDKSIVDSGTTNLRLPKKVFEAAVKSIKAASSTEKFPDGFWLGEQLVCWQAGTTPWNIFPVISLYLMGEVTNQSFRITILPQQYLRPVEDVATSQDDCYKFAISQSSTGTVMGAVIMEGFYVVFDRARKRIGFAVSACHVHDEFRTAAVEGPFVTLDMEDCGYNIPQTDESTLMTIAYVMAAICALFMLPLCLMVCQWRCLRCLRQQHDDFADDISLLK
- assay-info: in vitro BACE Assay run by CEREP (Example 15)
- Format: biochemical
- assay-setup: recombinant enzyme; pH 4.5; 60 min at 37° C.; read-out: IC50
pIC50: −log10 of the molar value.
quantity-measured: pIC50

>>> experimental_result("Nc1nc2ccc3cc2cc1C(C1CCCCC1)C/C=C/C(=O)N(C1CCCCC1)CCc1cccc(c1)O3 (stereo not drawn) [Compound 39]")
6.09
>>> experimental_result("NC1=Nc2cnc3cc2CN1[C@H](C1CCCCC1)CCC(=O)N([C@H]1CC[C@@H](O)CC1)CCc1cccc(c1)O3 [Compound 34]")
6.68
>>> experimental_result("CC(C)[C@@H]1CCC(=O)N(C2CCCCC2)C2CCc3ccc(cc32)Oc2ccc3c(c2)CN1C(N)=N3 (stereo partly drawn) [Compound 36]")
6.82
>>> experimental_result("NC1=Nc2ccc3cc2CN1[C@H](C1CCCCC1)CCC(=O)N([C@H]1CC[C@@H](O)CC1)CCc1cccc(c1)O3 [Compound 35]")
7.08
>>> experimental_result("NC1=Nc2cnc3cc2CN1[C@H](C1CCCCC1)CCC(=O)N(CC1CC1)CCc1cccc(c1)O3 [Compound 38]")
7.17
>>> experimental_result("NC1=Nc2cnc3cc2CN1[C@H](C1CCCCC1)CCC(=O)N(C1CCCC1)CCc1cccc(c1)O3 [Compound 37]")
7.15

Every entry's value here was drawn from patent US7932261B2.
